# GI50 annotations
- Test system: HCC 2998
- method.notes: NCI tumour cell line growth inhibition, 48 h
The source made the active and inactive calls. No stated cut-off is given here; in the data, active = GI50 up to about 1.1 µM and inactive = higher.

{"molecule": "CN/C(=N\\n1cnnc1)OC", "GI50": "> 100 µM (inactive)"}
{"molecule": "CCOP(=O)(OCC)OC1c2[nH]cc(C(=O)OCc3ccccc3)c2-c2cc(C(=O)OC)[nH]c2C1OC (centres undefined)", "GI50": "6.85 µM (inactive)"}
{"molecule": "CC(=O)Oc1ccc2cc(-c3ccc(OC(C)=O)c(OC(C)=O)c3)c(=O)oc2c1", "GI50": "> 100 µM (inactive)"}
{"molecule": "CCCCCCCC[N+](C)(C)Cc1ccc(C[N+](C)(C)CCCCCCCC)cc1", "GI50": "31.5 µM (inactive)"}
{"molecule": "O=c1c2ccccc2n2c(-c3ccccc3O)nnc2n1-c1ccccc1", "GI50": "> 100 µM (inactive)"}
{"molecule": "COc1ccc(OC)c2c1C[C@@H]1C(C#N)N3[C@H](Cc4c(OC)ccc(OC)c4[C@@H]3C)C(=O)N1[C@H]2C (some centres undefined)", "GI50": "3.61 µM (inactive)"}
{"molecule": "Cc1cc2c(cc1Cl)SC(NNC(=O)c1ccncc1)=NS2(=O)=O", "GI50": "> 10 µM (inactive)"}
{"molecule": "NCCCNC(=O)c1csc(NC(=O)c2csc(NC(=O)CCCN)n2)n1", "GI50": "> 100 µM (inactive)"}
{"molecule": "COc1cc(/C=C2\\[C@H]3c4c(c(OC)c(C)c(OC)c4OC)CC(C(=O)N2Cc2ccccc2)N3C)c(OC)c(C)c1OC", "GI50": "21.7 µM (inactive)"}
{"molecule": "CCC(C)C1NC(=O)C(NC(=O)c2c3nc4c(C(=O)NC5C(=O)NC(C(C)CC)C(=O)N6CCCC6C(=O)N(C)CC(=O)N(C)C(C(C)C)C(=O)OC5C)ccc(C)c4oc-3c(C)c(=O)c2O)C(C)OC(=O)C(C(C)C)N(C)C(=O)CN(C)C(=O)C2CCCN2C1=O (centres undefined)", "GI50": "3.16 µM (inactive)"}
{"molecule": "Cc1ccc([N+](=O)[O-])cc1S(=O)(=O)Nc1ccc(C2=NNC(c3ccccc3O)C2)cc1 (centres undefined)", "GI50": "34.7 µM (inactive)"}
{"molecule": "COC1OC2COC(c3ccccc3)OC2C(O)C1Br (centres undefined)", "GI50": "> 100 µM (inactive)"}
{"molecule": "N#C/C(=C\\c1ccncc1)c1csc2ccccc12", "GI50": "17.4 µM (inactive)"}
{"molecule": "COC(=O)C1=C(C(=O)OC)C(C(=O)c2ccccc2)N2N=C(c3ccc(Cl)cc3)C=CC12 (centres undefined)", "GI50": "> 100 µM (inactive)"}
{"molecule": "Oc1cc(/C=C/c2ccccc2)nc2cc3c(cc12)OCO3", "GI50": "2.9 µM (inactive)"}
{"molecule": "CCOC(=O)CC(=O)C(=O)NN=C1NCCN1", "GI50": "> 100 µM (inactive)"}
{"molecule": "N#C[C@H](c1nc2ccccc2s1)c1nc2ccccc2nc1Cl", "GI50": "2.67 µM (inactive)"}
{"molecule": "COc1ccc(/C=N/NC(=O)C2=C(N)N(c3ccccc3)C(=C(C#N)C#N)S2)cc1", "GI50": "> 100 µM (inactive)"}
{"molecule": "O=S(=O)(O)C(F)(F)C(F)(F)C(F)(F)C(F)(F)F", "GI50": "> 100 µM (inactive)"}
{"molecule": "Oc1nnc(CNc2ccc(Cl)cc2Cl)c2ccccc12", "GI50": "20 µM (inactive)"}
{"molecule": "Cc1cc(C)c2c(c1)CC1(Cc3cc(C)c(C)cc3C1=O)C2=O (centres undefined)", "GI50": "> 100 µM (inactive)"}
{"molecule": "O=c1[nH]c(=O)n(COCCO)cc1-c1ccccc1", "GI50": "> 100 µM (inactive)"}
{"molecule": "c1ccc2c(c1)ccn2CCc1c[nH]c2ccccc12", "GI50": "> 10 µM (inactive)"}
{"molecule": "Nc1nc(N)nc(-c2cnc3ccccc3c2)n1", "GI50": "> 100 µM (inactive)"}
